- Tested on: C. albicans
- METHOD_SUMMARY: Minimum inhibitory concentration, RPMI medium
- Assay type: cell-based
- CONDITIONS_USED: banded MIC grade
OUTCOME_MEASURE: MIC grade, C. ALBICANS, RPMI media

1) NC1=NN=C2c3ccccc3CCC2S1 (stereo not shown)
1 (1: ≥20 mg/L)
2) NC1=NN=C(CCCCOCc2cc(Cl)cc(Cl)c2)CS1
2 (2: 5-20 mg/L)
3) CC(C)OC(=O)CC1=NN=C(N)SC1
1 (1: ≥20 mg/L)
4) CCOC(=O)CC1=NN=C(N)SC1
3 (3: 1-5 mg/L)
5) NC1=NNC2=C(CCCC2)S1
1 (1: ≥20 mg/L)
6) NC1=NN=C(CCCCOCc2cc(F)cc(F)c2)CS1
4 (4: <1 mg/L)
7) CCCCCOc1ccc(CCC2=NN=C(N)SC2)cc1
1 (1: ≥20 mg/L)
8) CCc1ccc(OCCCCCC2=NN=C(N)SC2)cc1
4 (4: <1 mg/L)
9) NC1=NN=C(c2ccccc2)CS1
1 (1: ≥20 mg/L)
10) CCCC(C)OCCC1=NN=C(N)SC1 (stereo not shown)
2 (2: 5-20 mg/L)
11) CCOC(=O)c1cccc(C2=NN=C(N)SC2)c1
1 (1: ≥20 mg/L)
12) CCCCOCCC1=NN=C(N)SC1
1 (1: ≥20 mg/L)
13) NC1=NN=C(CCCCOCc2ccc(Cl)cc2F)CS1
4 (4: <1 mg/L)

----------
Readings of MIC grade, A. TERREUS 49, RPMI media for the listed compounds
- Test system: A. terreus 49
- METHOD_SUMMARY: Minimum inhibitory concentration, RPMI medium
- Assay type: cell-based
- CONDITIONS_USED: banded MIC grade
OUTCOME_MEASURE: MIC grade, A. TERREUS 49, RPMI media

1) NC1=NN=C(CCCCOCc2ccc(F)cc2)CS1
1 (1: ≥20 mg/L)
2) CCc1ccc(OCCCCC2=NN=C(N)SC2)cc1
2 (2: 5-20 mg/L)
3) NC1=NN=C(CCCCOCc2cc(Cl)cc(Cl)c2)CS1
2 (2: 5-20 mg/L)
4) NC1=NN=C(CCCCOCc2ccc(Br)cc2)CS1
3 (3: 1-5 mg/L)
5) NC1=NN=C(CCCCOCc2c(F)cccc2Cl)CS1
2 (2: 5-20 mg/L)
6) NC1=NN=C(CCCCOCc2cc(F)cc(F)c2)CS1
3 (3: 1-5 mg/L)
7) NC1=NN=C(CCCCCOc2ccccn2)CS1
4 (4: <1 mg/L)
8) NC1=NN=C(CCCCOCc2ccc(Cl)cc2Cl)CS1
2 (2: 5-20 mg/L)
9) CC(=O)OCCCCC1=NN=C(N)SC1
3 (3: 1-5 mg/L)
10) NC1=NN=C(CCCCOCc2ccccc2C2CC2)CS1
2 (2: 5-20 mg/L)
11) NC1=NN=C(CCCCOCc2cccc(C3CC3)c2)CS1
2 (2: 5-20 mg/L)
12) NC1=NN=C(CCCCOCc2cccc(-c3ccccc3)c2)CS1
1 (1: ≥20 mg/L)
13) NC1=NN=C(CCCCOCc2cccc(CCc3ccccc3)c2)CS1
1 (1: ≥20 mg/L)

----------
- Test system: A. terreus 49
- METHOD_SUMMARY: Minimum inhibitory concentration, YAG medium
- Format: cell-based, Aspergillus terreus
- CONDITIONS_USED: banded MIC grade
- Procedure: The compound was dissolved in DMSO to give a solution containing 5 mg/mL. Tubes were stored at −20° C. until required. On the day of testing thawed solutions were vortex mixed to ensure homogeneity. 30 μL of solution was removed and added to 570 μL of sterile water in a separate sterile Eppendorf. […] Growth was assessed by monitoring the optical density at 485 nm for each well. […] MICs are recorded as mg/L.
OUTCOME_MEASURE: MIC grade, A. TERREUS 49, YAG media

1) CCOC(=O)c1ccc(C2=CSC(N)=NN2)cc1
3 (3: 0.2-1 mg/L)
2) Cc1ccc(C2=NN=C(N)SC2)cc1
3 (3: 0.2-1 mg/L)
3) CCOC(=O)CC1=NN=C(N)SC1
3 (3: 0.2-1 mg/L)
4) CCCCc1ccc(COCCC2=NN=C(N)SC2)cc1
2 (2: 1-5 mg/L)
5) NC1=NN=C(CCCCOCCc2ccccc2)CS1
3 (3: 0.2-1 mg/L)
6) NC1=NN=C(CCCCOCc2ccccc2)CS1
4 (4: <0.2 mg/L)
7) NC1=NN=C(CCOCc2ccccc2)CS1
3 (3: 0.2-1 mg/L)
8) NC1=NN=C(CCCCOc2ccccc2)CS1
4 (4: <0.2 mg/L)
9) NC1=NN=C(c2cccc(Cl)c2)CS1
1 (1: ≥5 mg/L)
10) NC1=NN=C(COc2ccccc2)CS1
3 (3: 0.2-1 mg/L)
11) COc1cccc(C2=NN=C(N)SC2)c1
1 (1: ≥5 mg/L)
12) COc1ccc(C2=NN=C(N)SC2)cc1
3 (3: 0.2-1 mg/L)
13) CCCCOc1ccc(C2=NN=C(N)SC2)cc1
1 (1: ≥5 mg/L)
14) COCCCCCC1=CSC(=N)NN1C
4 (4: <0.2 mg/L)

----------
- Tested on: C. krusei
- METHOD_SUMMARY: Minimum inhibitory concentration, RPMI medium
- Assay type: cell-based
- CONDITIONS_USED: banded MIC grade
OUTCOME_MEASURE: MIC grade, C. KRUSEI, RPMI media

1) NC1=NN=C(CCCCOCc2ccc(F)cc2F)CS1
4 (4: <1 mg/L)
2) NC1=NN=C(CCCCOCc2ccccc2CCc2ccccc2)CS1
2 (2: 5-20 mg/L)
3) Cc1cccc(COCCCCC2=NN=C(N)SC2)c1
3 (3: 1-5 mg/L)
4) NC1=NN=C(CCCCOCc2cccc(C3CC3)c2)CS1
4 (4: <1 mg/L)
5) NC1=NN=C(CCCCOCc2cccc(Cl)c2)CS1
4 (4: <1 mg/L)
6) NC1=NN=C(CCCCOCc2ccccc2C(F)(F)F)CS1
2 (2: 5-20 mg/L)
7) NC1=NN=C(CCCCOCc2cccc(-c3ccccc3)c2)CS1
2 (2: 5-20 mg/L)
8) NC1=NN=C(CCCCOCCc2ccccc2)CS1
3 (3: 1-5 mg/L)
9) NC1=NN=C(CCCCOCc2ccc(Cl)cc2Cl)CS1
2 (2: 5-20 mg/L)
10) NC1=NN=C(CCCCOCc2cc(Cl)cc(Cl)c2)CS1
2 (2: 5-20 mg/L)
11) CCc1ccc(OCCCCC2=NN=C(N)SC2)cc1
4 (4: <1 mg/L)
12) CC(=O)OCCCCC1=NN=C(N)SC1
4 (4: <1 mg/L)
13) COc1ccc(COCCCCC2=NN=C(N)SC2)cc1
2 (2: 5-20 mg/L)

----------
Readings of MIC grade, A. TERREUS 49, YAG media for the listed compounds
- System: A. terreus 49
- METHOD_SUMMARY: Minimum inhibitory concentration, YAG medium
- Type: cell-based, Aspergillus terreus
- CONDITIONS_USED: banded MIC grade
OUTCOME_MEASURE: MIC grade, A. TERREUS 49, YAG media

1. NC1=NN=C(CCCCOCc2ccc(C(F)(F)F)cc2)CS1
4 (4: <0.2 mg/L)
2. COC(=O)CC1=NN=C(N)SC1
2 (2: 1-5 mg/L)
3. NC1=NN=C2c3ccccc3CCC2S1 (centres unmarked)
2 (2: 1-5 mg/L)
4. CCCCCCOCCC1=NN=C(N)SC1
4 (4: <0.2 mg/L)
5. COCCC1=NN=C(N)SC1
3 (3: 0.2-1 mg/L)
6. CCCCC/C=C/C1=NN=C(N)SC1
2 (2: 1-5 mg/L)
7. CC(C)OCCC1=NN=C(N)SC1
2 (2: 1-5 mg/L)
8. Cc1ccc(OCCC2=NN=C(N)SC2)cc1
3 (3: 0.2-1 mg/L)

----------
- Tested on: A. fumigatus 210
- METHOD_SUMMARY: Minimum inhibitory concentration, YAG medium
- Format: cell-based, Aspergillus fumigatus
- CONDITIONS_USED: banded MIC grade
Readings of MIC grade, A. FUMIGATUS 210, YAG media for the listed compounds
OUTCOME_MEASURE: MIC grade, A. FUMIGATUS 210, YAG media

1) COCCCCCCC1=NN=C(N)SC1
4 (4: <0.2 mg/L)
2) COCCOCCC1=NN=C(N)SC1
2 (2: 1-5 mg/L)
3) CCCCOC1CCC2=NN=C(N)SC2C1 (centres unmarked)
3 (3: 0.2-1 mg/L)
4) CCCCc1ccc(OCCCCCC2=NN=C(N)SC2)cc1
2 (2: 1-5 mg/L)
5) NC1=NN=C(CCOC2CCCCC2)CS1
1 (1: ≥5 mg/L)
6) NC1=NN=C(CCCCOCc2cccc(Oc3ccccc3)c2)CS1
1 (1: ≥5 mg/L)
7) COc1ccc(COCCC2=NN=C(N)SC2)cc1
3 (3: 0.2-1 mg/L)
8) NC1=NN=C(c2cccc(Cl)c2)CS1
1 (1: ≥5 mg/L)
9) CCc1cccc(OCCCCCC2=NN=C(N)SC2)c1
4 (4: <0.2 mg/L)
10) NC1=NNC2=C(CCCC2)S1
3 (3: 0.2-1 mg/L)
11) NC1=NN=C(CCCCSCc2ccc(Cl)cc2)CS1
3 (3: 0.2-1 mg/L)
12) NC1=NN=C(CCCCOCc2cccc(CCc3ccccc3)c2)CS1
1 (1: ≥5 mg/L)
13) CCCC(C)OCCC1=NN=C(N)SC1 (centres unmarked)
3 (3: 0.2-1 mg/L)
14) CCOC(=O)c1cccc(C2=NN=C(N)SC2)c1
1 (1: ≥5 mg/L)
